PROTOCOL: VP16 transactivation reporter inhibitors, counter-screen for LRH-1 inverse agonist project, cell-based, luminescence, high throughput (AID 651615)
STATED_CONDITIONS: Gal4-VP16 luciferase reporter cells, at 3.6 µM, hits give high values
READOUT_NAME: inhibition (%)
The figure you give is taken to be in %; do not add the unit.

MOLECULE: CCN(CC)c1nc(C)c(C(C)=O)cc1C#N
MEASURE_UNIT: %
OBSERVED_VALUE: 12
//
MOLECULE: CC(=O)Nc1ncc(Cc2cc(Cl)ccc2Cl)s1
MEASURE_UNIT: %
OBSERVED_VALUE: 2.54

QUERY: Need inhibition, item CC(=O)N1CCN(c2ccc(NC(=O)c3cccc([N+](=O)[O-])c3)cc2)CC1
RESULT: -19.9

QUERY: Same again, this time with Cc1ccc(C2CC(C(F)(F)F)n3nc(C(=O)NCc4ccco4)cc3N2)cc1 (stereo unspecified)
RESULT: -8.91

QUERY: Same again, this time with CN(C)CCNc1ccc(CO)c2oc3ccc(O)cc3c(=O)c12
RESULT: 48.4

QUERY: Same again, this time with Cc1no[n+]([O-])c1COc1ccccc1/C=N/n1nnnc1N
RESULT: -13.9

QUERY: Same again, this time with O=C(Nc1ccc(F)cc1)C(c1cc2ccccc2o1)N1CCN(c2cccc(C(F)(F)F)n2)CC1 (stereo unspecified)
RESULT: 16.1

QUERY: Same again, this time with CC(=O)NC(c1ccc(Cl)cc1Cl)c1ccc2cccnc2c1O (stereo unspecified)
RESULT: 80.2

QUERY: Same again, this time with Cc1c(/C(O)=C2/C(=O)C(=O)N(CCN3CCOCC3)C2c2ccccn2)cnn1-c1ccccc1 (stereo unspecified)
RESULT: 12.3

QUERY: Same again, this time with CN(Cc1cnc2nc(N)nc(N)c2n1)c1ccc(C(=O)NC(CCC(=O)O)C(=O)O)cc1 (stereo unspecified)
RESULT: 19.9

QUERY: Same again, this time with CCOC(=O)c1c(NC(=O)/C=C/C(=O)O)sc(C)c1-c1ccc(Cl)cc1
RESULT: 5.25

---

TARGET_OR_SYSTEM: Nuclear receptor coactivator 1 (Homo sapiens) (UniProt Q15788)
Sequence (Q15788 whole entry, looked up): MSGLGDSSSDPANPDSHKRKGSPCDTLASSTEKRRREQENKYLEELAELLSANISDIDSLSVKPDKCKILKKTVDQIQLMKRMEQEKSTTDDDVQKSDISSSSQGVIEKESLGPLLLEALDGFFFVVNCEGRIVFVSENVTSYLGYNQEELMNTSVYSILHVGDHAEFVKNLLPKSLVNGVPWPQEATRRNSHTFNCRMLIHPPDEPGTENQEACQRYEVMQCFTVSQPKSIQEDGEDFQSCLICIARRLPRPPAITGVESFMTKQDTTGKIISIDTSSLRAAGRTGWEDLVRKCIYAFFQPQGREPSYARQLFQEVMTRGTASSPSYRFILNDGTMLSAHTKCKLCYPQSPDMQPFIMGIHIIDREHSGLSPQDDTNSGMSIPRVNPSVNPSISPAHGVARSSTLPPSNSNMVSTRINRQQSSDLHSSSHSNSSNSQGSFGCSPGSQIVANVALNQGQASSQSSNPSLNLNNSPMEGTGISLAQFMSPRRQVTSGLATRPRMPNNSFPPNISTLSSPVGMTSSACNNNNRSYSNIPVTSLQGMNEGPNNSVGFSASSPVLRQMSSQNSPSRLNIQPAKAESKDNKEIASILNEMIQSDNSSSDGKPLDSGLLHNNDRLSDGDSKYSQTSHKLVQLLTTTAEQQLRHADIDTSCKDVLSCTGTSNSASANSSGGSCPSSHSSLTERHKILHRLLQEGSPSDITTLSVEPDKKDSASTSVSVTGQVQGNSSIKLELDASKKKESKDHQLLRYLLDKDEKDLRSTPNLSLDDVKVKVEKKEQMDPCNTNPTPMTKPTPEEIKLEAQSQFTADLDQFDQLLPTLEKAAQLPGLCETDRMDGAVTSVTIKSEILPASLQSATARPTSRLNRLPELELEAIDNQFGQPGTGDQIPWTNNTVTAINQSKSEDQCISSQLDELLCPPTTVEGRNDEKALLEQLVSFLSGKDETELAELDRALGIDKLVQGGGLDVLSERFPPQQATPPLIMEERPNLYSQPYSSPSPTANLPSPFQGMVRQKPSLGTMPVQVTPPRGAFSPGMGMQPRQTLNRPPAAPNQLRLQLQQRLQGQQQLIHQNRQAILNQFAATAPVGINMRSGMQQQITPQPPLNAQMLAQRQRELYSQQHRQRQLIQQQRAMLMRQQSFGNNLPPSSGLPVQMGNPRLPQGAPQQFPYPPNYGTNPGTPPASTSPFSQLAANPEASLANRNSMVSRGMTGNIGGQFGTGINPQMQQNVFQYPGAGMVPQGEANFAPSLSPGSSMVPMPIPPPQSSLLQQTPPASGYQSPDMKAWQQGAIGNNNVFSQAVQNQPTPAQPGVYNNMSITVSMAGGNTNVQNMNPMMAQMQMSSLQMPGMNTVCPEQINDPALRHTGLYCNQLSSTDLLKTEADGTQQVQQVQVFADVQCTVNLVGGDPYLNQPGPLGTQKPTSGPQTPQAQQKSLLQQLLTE
PROTOCOL: SRC1 coactivator transcriptional activity inhibitors, confirmation, cell-based, luminescence, quadruplicate (AID 588820);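 note: 0% = DMSO wells and 100% = gossypol 36 µM treated wells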
STATED_CONDITIONS: HEK293 GAL4-SRC1 luciferase reporter, at 3.6 µM
Active and inactive are the calls of the source.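 The calls were made as follows: active = mean inhibition above 46.68%, the untreated control wells mean plus 3 SD; inactive = the rest.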
Assign a class; possible classes are T for active, F for inactive

COMPOUND: CC(C)(C)c1ccc(C(=O)Nc2ccc(CC(=O)O)cc2)o1
TARGET_OR_SYSTEM: Nuclear receptor coactivator 1 (Homo sapiens) (UniProt Q15788)
GROUP_LABEL: F
//
COMPOUND: CCCCCCCCNc1ncnc2ccccc12
TARGET_OR_SYSTEM: Nuclear receptor coactivator 1 (Homo sapiens) (UniProt Q15788)
GROUP_LABEL: F
//
COMPOUND: CC1(C)CC(N2CCN(C(c3ccccc3)c3ccccc3)CC2)=CC(=[N+]2CCCCC2)C1
TARGET_OR_SYSTEM: Nuclear receptor coactivator 1 (Homo sapiens) (UniProt Q15788)
GROUP_LABEL: T

QUERY: Test call for this compound, please: Oc1ccccc1N=Nc1nc(-c2ccccc2)c(-c2ccccc2)[nH]1
RESULT: T

QUERY: Same again, this time with Nc1ccc(Oc2cccc(Oc3ccc(N)cc3)c2)cc1
RESULT: F

QUERY: Same again, this time with CN(C)CCOc1ccc2c(c1)C(=O)C(=Cc1ncc([N+](=O)[O-])n1C)C2
RESULT: F

QUERY: Same again, this time with COc1ccccc1-c1cccc(-c2nc(C(=O)N3CCCCC3)cc3c2[C@H](CCO)N(S(=O)C(C)(C)C)C3)c1 (some centres not stated)
RESULT: F

QUERY: Same again, this time with O=C(NC1CC(=O)N(c2ccccc2)C1)C1CC1 (configuration not stated)
RESULT: F

---

PROTOCOL: VP16 transactivation reporter inhibitors, counter-screen for LRH-1 inverse agonist project, cell-based, luminescence, high throughput (AID 651615)
STATED_CONDITIONS: Gal4-VP16 luciferase reporter cells, at 3.6 µM, hits give high values
READOUT_NAME: inhibition (%)
The figure you give is taken to be in %; do not add the unit.

QUERY: Need inhibition, item CC1(C)Cc2c(sc3nc(SCC(=O)NCc4ccco4)n(-c4ccccc4)c(=O)c23)CS1
RESULT: 4.77

QUERY: Same again, this time with O=[N+]([O-])c1ccc(O)c(/C=N/Nc2nc3ccccc3[nH]2)c1
RESULT: 83

---

Tested on: transactivating tegument protein VP16 (Human herpesvirus 1)
PROTOCOL: VP16 transactivation reporter inhibitors, counter-screen for SRC2 inhibitor project, cell-based, luminescence, single concentration (AID 652007)
STATED_CONDITIONS: cell-based VP16 transactivation luciferase reporter, at 8.9 µM
Active and inactive are the calls of the source. Cut-off read from the data, not from the text of the source: active = inhibition above about 36%; inactive = the rest.
Assign a class; possible classes are active, inactive

COMPOUND: CCN(CC)c1ccc(/C=N/Nc2nc(C)cc(=O)[nH]2)c(O)c1
GROUP_LABEL: inactive
--
COMPOUND: CCn1nc(NC(=O)C(C)C)c2cc3cccc(C)c3nc21
GROUP_LABEL: inactive
--
COMPOUND: O=C(N/N=C/c1cc(Br)ccc1O)C(c1ccncc1)N1CCOCC1 (stereo not given)
GROUP_LABEL: inactive
--
COMPOUND: COc1ccc(-c2noc(CCC(=O)NCCCN3CCC(Cc4ccccc4)CC3)n2)cc1
GROUP_LABEL: inactive
--
COMPOUND: COc1cc(S(=O)(=O)N(C)Cc2ccc3c(c2)OCCO3)ccc1NC(C)=O
GROUP_LABEL: inactive
--
COMPOUND: CCC(=O)Nc1ccc(NC(=O)c2oc3ccccc3c2C)cc1
GROUP_LABEL: inactive

QUERY: Test call for this compound, please: CNc1ccc2ncc(-c3ccc(OC)c(OC)c3)n2n1
RESULT: inactive

QUERY: Same again, this time with Cc1ccc(NCc2nnc(SCC(=O)c3ccccc3)n2Cc2ccco2)c(C)c1
RESULT: inactive

QUERY: Same again, this time with O=C(NCc1cccnc1)/C(=C\c1ccc(-c2cccc(Cl)c2)o1)S(=O)(=O)c1ccccc1
RESULT: active

QUERY: Same again, this time with O=C1CSC(c2ccc([N+](=O)[O-])cc2)N1c1ccc(O)cc1 (stereo not given)
RESULT: inactive

---

TARGET_OR_SYSTEM: Bcl-2-like protein 1 (Homo sapiens) (UniProt Q07817)
Sequence (Q07817 whole entry, looked up): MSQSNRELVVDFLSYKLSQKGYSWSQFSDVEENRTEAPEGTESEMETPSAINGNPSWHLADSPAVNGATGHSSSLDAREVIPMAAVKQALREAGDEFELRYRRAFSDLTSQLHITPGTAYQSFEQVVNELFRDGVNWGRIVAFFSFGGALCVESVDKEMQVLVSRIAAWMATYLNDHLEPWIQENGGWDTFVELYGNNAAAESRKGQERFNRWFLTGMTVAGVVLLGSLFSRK
PROTOCOL: Bcl-xL inhibitors blocking Bim BH3 binding, confirmation, counter-screen for MCL1 inhibitor project, biochemical, fluorescence polarization (AID 2166)
STATED_CONDITIONS: GST-Bcl-xL / FITC-Bim BH3 peptide FP binding; at 10.9 µM; hits give high values
This is one part of the list.
Measured inhibition, listed per entry for reference.
The figure you give is taken to be in %; do not add the unit.

Here are 4 molecules together with their reported answers.
MOLECULE: COC(=O)c1sc(NC(=S)NC(=O)c2ccc(C)cc2)nc1C
OBSERVED_VALUE: 12.1
//
MOLECULE: Cc1c(CC(=O)N2CCN(C(=O)C3COc4ccccc4O3)CC2)c(=O)oc2c(O)c(O)ccc12 (stereo not given)
OBSERVED_VALUE: 69.1
//
MOLECULE: CN(C(=O)COC(=O)c1cc(-c2ccco2)nc2ccccc12)C1CCS(=O)(=O)C1 (stereo not given)
OBSERVED_VALUE: 34.6
//
MOLECULE: CN1c2ccc(C=O)c3c(C=O)ccc(c23)N(C)C1(C)C
OBSERVED_VALUE: 126

We now examine a further molecule.
QUERY: Need inhibition, item O=C(O)c1ccccc1N=N/C(=N/Nc1cc(S(=O)(=O)O)ccc1O)c1ccccc1
RESULT: 29.1

---

TARGET_OR_SYSTEM: Nuclear receptor subfamily 5 group A member 2 (Homo sapiens) (UniProt O00482)
Sequence (O00482 whole entry, looked up): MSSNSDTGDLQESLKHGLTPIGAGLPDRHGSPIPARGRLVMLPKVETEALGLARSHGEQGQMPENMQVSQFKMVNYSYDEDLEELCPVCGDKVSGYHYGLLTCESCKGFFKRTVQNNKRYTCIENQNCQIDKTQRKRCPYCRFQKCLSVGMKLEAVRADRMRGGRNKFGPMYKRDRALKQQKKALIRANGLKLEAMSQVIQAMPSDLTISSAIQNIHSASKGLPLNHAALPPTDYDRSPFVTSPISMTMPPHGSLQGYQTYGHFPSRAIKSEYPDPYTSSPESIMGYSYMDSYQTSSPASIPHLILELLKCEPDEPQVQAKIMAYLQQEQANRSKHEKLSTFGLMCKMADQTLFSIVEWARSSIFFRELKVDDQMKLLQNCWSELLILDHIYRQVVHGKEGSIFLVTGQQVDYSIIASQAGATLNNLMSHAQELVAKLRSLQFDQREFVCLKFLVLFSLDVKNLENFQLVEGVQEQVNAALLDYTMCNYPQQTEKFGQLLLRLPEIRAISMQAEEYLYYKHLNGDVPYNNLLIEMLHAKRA
PROTOCOL: LRH-1 (NR5A2) inverse agonists, retest, confirmation, cell-based, luminescence (AID 651613);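 note: HEK293T cells co-transfected with LRH-1 and StAR promoter luciferase reporter; 0% = vehicle wells and 100% = parental cells lacking receptor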
STATED_CONDITIONS: cell-based LRH-1 luciferase reporter, inverse agonism; at 3.6 µM
Calls of active or inactive are those of the source. Cut-off read from the data, not from the text of the source: active = inhibition above about 42%; inactive = the rest.
Assign a class; possible classes are true = active, false = inactive

MOLECULE: CCOc1ccc(CCNC(=O)CN2C(=O)NC3(CCc4ccccc43)C2=O)cc1OCC (stereo not given)
GROUP_LABEL: true

MOLECULE: CC(=O)Oc1ccc(N(C(C)=O)S(=O)(=O)c2ccccc2)c2ccccc12
GROUP_LABEL: false

MOLECULE: Clc1ccccc1-c1nc(N/N=C/c2cccnc2)c2ccccc2n1
GROUP_LABEL: true

MOLECULE: COc1ccc(OC)c(C2=NS(=O)(=O)N(C)C(C(=O)Nc3ccc(C(C)=O)cc3)=C2)c1
GROUP_LABEL: true

MOLECULE: CN(C)CCNc1ccc(CO)c2sc3ccc(O)cc3c(=O)c12
GROUP_LABEL: true

MOLECULE: COc1cc(NC(=O)c2ccc([N+](=O)[O-])o2)ccc1NC(=O)c1cccs1
GROUP_LABEL: true

MOLECULE: COc1ccc(NC(=O)COC(=O)Cc2c[nH]c3ccccc23)cc1Cl
GROUP_LABEL: false

MOLECULE: CC1=C(n2nnc([N+](=O)[O-])n2)C(c2cccnc2)C(C#N)=C(N)O1 (stereo not given)
GROUP_LABEL: false

QUERY: Test call for this molecule, please: CCOc1ccc(CCNC(=O)COC(=O)c2c(C)nn(-c3ccccc3)c2C)cc1OCC
RESULT: true

QUERY: Same again, this time with c1ccc(-c2nc(NCC3CCCO3)c3oc4ccccc4c3n2)cc1 (stereo not given)
RESULT: false

Values were extracted from PubChem BioAssay.
